In this section, each of the compounds is paired with its reported Ki.
molecular target: IKKα (Homo sapiens); test: DELFIA kinase assay, IKKα; type: biochemical; settings: DELFIA kinase assay
Sequence (O15111 whole entry): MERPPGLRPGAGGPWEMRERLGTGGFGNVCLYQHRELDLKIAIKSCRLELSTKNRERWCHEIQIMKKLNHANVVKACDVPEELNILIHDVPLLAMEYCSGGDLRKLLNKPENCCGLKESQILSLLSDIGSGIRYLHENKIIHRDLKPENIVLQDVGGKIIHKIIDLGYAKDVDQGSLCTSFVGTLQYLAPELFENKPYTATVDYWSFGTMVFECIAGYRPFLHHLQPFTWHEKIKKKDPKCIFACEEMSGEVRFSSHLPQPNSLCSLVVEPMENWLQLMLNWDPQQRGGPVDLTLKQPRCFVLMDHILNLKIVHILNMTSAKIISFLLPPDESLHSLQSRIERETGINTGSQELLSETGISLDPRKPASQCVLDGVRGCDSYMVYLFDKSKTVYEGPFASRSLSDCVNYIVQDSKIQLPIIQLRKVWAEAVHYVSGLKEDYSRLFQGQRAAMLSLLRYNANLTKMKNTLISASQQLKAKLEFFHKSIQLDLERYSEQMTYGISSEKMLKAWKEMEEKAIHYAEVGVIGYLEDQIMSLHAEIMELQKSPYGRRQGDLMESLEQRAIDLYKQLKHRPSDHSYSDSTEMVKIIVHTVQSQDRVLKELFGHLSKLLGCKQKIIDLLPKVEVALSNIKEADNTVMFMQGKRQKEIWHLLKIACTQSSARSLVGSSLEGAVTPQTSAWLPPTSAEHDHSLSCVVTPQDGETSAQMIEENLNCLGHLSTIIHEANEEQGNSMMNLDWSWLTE

[
  {
    "Compound": "COc1cc(F)cc(-c2cc3c(-c4ccc5[nH]nc(N)c5c4)ccnc3[nH]2)c1",
    "Unit name": "nM",
    "Ki": 3
  },
  {
    "Compound": "CN1CCN(C(=O)c2cccc(-c3cc4c(-c5ccc6[nH]nc(N)c6c5)ccnc4[nH]3)c2)CC1",
    "Unit name": "nM",
    "Ki": 24
  },
  {
    "Compound": "Cc1ccc(S(=O)(=O)Nc2ccc(-c3cc4c(-c5ccc6[nH]nc(N)c6c5)ccnc4[nH]3)cc2)cc1",
    "Unit name": "nM",
    "Ki": 4
  },
  {
    "Compound": "Nc1n[nH]c2ccc(-c3ccnc4[nH]c(-c5cccc(OCc6ccccn6)c5)cc34)cc12",
    "Unit name": "nM",
    "Ki": 16
  },
  {
    "Compound": "COCCNC(=O)c1cccc(-c2cc3c(-c4ccc5[nH]nc(N)c5c4)ccnc3[nH]2)c1",
    "Unit name": "nM",
    "Ki": 15
  },
  {
    "Compound": "Nc1n[nH]c2ccc(-c3ccnc4[nH]c(-c5cc(F)nc(CNc6ccccc6)c5)cc34)cc12",
    "Unit name": "nM",
    "Ki": 33
  },
  {
    "Compound": "Nc1n[nH]c2ccc(-c3ccnc4[nH]c5ccccc5c34)cc12",
    "Unit name": "nM",
    "Ki": 3
  },
  {
    "Compound": "Nc1n[nH]c2ccc(-c3ccnc4[nH]c(-c5cccc(OCC6CCOCC6)c5)cc34)cc12",
    "Unit name": "nM",
    "Ki": 8
  },
  {
    "Compound": "Nc1n[nH]c2ccc(-c3ccnc4[nH]c(-c5cccc(CNC6CCCC6)c5)cc34)cc12",
    "Unit name": "nM",
    "Ki": 10
  },
  {
    "Compound": "Nc1n[nH]c2ccc(-c3ccnc4[nH]c(-c5cc(F)nc(SCc6ccccc6)c5)cc34)cc12",
    "Unit name": "nM",
    "Ki": 127
  },
  {
    "Compound": "NC(=O)c1cccc(-c2cc3c(-c4ccc5[nH]nc(N)c5c4)ccnc3[nH]2)c1",
    "Unit name": "nM",
    "Ki": 5
  },
  {
    "Compound": "COCCOCc1cc(OCc2ccccc2)cc(-c2cc3c(-c4ccc5[nH]nc(N)c5c4)ccnc3[nH]2)c1",
    "Unit name": "nM",
    "Ki": 29
  },
  {
    "Compound": "CC(C)COc1cccc(-c2cc3c(-c4ccc5[nH]nc(N)c5c4)ccnc3[nH]2)c1",
    "Unit name": "nM",
    "Ki": 19
  },
  {
    "Compound": "COc1cccc(-c2cc3c(-c4ccc5[nH]nc(N)c5c4)ccnc3[nH]2)c1",
    "Unit name": "nM",
    "Ki": 5
  },
  {
    "Compound": "Nc1n[nH]c2ccc(-c3ccnc4[nH]c(-c5ccccc5)cc34)cc12",
    "Unit name": "nM",
    "Ki": 3
  },
  {
    "Compound": "Nc1n[nH]c2ccc(-c3ccnc4[nH]c(-c5ccccc5O)cc34)cc12",
    "Unit name": "nM",
    "Ki": 4
  }
]

Recorded values, source paper PMC11314561.
